B1: glmS ribozyme (parent)
chain: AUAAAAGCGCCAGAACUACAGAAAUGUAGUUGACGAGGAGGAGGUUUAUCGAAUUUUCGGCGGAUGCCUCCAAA

Variants of: B1
Test: self-cleavage kobs at 640 uM GlcN6P; higher = faster cleavage; RNA array
Details: with glucosamine-6-phosphate
Variants at the floor of the assay were thinned out.
Result type: self-cleavage kobs at 640 uM GlcN6P (s⁻¹)

A14C U69C C71U = 4.76e-05
G29C A53G = 0.000398
U47A C67G = 0.000147
A6G U31G = 4.67e-05
U31A C67U = 0.00143
U45C A52G C70U = 4.7e-05
G37A A53U C71U = 0.000464
A33U U57A C58U C70A C71G = 9.76e-05
C11U C67A C71U = 4.57e-05
G32A U55A = 0.000541
C11A C50A C68G = 0.000154
C11A U30G = 6.39e-05
A14U G32U = 0.000142
C67G C68U = 5.35e-05
U46A U69C = 0.00073
A15C G32U U55G C58G U69G = 0.000909
A15U U30C = 3.48e-05
A12U C16A = 0.00128
U31A A48C = 4.87e-05
